# TARGET_OR_TEST_SYSTEM: Cyclin-dependent kinase 5/CDK5 activator 1 (Homo sapiens) (UniProt Q00535+Q15078)
# Sequence (Q00535 whole entry): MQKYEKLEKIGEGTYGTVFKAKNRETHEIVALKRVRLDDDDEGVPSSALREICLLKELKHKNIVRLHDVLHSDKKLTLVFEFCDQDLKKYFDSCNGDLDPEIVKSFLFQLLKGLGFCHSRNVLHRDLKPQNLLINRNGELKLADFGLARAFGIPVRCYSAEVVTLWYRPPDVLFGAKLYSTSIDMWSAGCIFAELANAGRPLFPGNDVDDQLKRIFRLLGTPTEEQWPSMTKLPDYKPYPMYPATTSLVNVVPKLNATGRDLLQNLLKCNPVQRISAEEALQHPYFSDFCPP
# Sequence (Q15078 99-307 partner limits assumed): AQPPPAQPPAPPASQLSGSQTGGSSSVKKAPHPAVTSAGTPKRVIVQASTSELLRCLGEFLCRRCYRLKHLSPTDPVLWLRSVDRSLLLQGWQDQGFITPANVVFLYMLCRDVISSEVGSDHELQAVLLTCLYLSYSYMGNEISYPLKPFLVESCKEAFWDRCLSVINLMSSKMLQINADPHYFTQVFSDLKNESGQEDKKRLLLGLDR
# COND: at 1 µM
Each record here notes measured residual activity.
Express it in %; write the number only.

{"COMPOUND": "CN(C)CCCn1cc(C2=C(c3c[nH]c4ccccc34)C(=O)NC2=O)c2ccccc21", "OBSERVABLE": "residual activity", "READOUT_UNIT": "%", "RECORDED_VALUE": 75}
{"COMPOUND": "O=[N+]([O-])c1ccc(-c2nc(-c3ccc(F)cc3)c(-c3ccncc3)[nH]2)cc1", "OBSERVABLE": "residual activity", "READOUT_UNIT": "%", "RECORDED_VALUE": 95}
{"COMPOUND": "Nc1nc(Nc2ccc(S(N)(=O)=O)cc2)nn1C(=S)Nc1c(F)cccc1F", "OBSERVABLE": "residual activity", "READOUT_UNIT": "%", "RECORDED_VALUE": -2}
{"COMPOUND": "C[C@@H](N)[C@H]1CC[C@H](C(=O)Nc2ccncc2)CC1", "OBSERVABLE": "residual activity", "READOUT_UNIT": "%", "RECORDED_VALUE": 99}

input: Endpoint output: residual activity of "Cc1ccc(S(=O)(=O)/C=C/C#N)cc1" . Value?
output: 102

input: Endpoint output: residual activity of "O=C1c2ccccc2-[n+]2ccc3c([nH]c4ccccc43)c21" . Value?
output: 72

input: Endpoint output: residual activity of "Nc1n[nH]c2nnc(-c3c(-c4ccccc4)nn4ccccc34)cc12" . Value?
output: 95

input: Endpoint output: residual activity of "c1ccc(-c2n[nH]c3c2oc2ccccc23)cc1" . Value?
output: 67

input: Endpoint output: residual activity of "CC[n+]1c(/C=C/N(C)c2ccccc2)n(-c2ccccc2)c2ccc(-c3nc4ccccc4s3)cc21" . Value?
output: 115

input: Endpoint output: residual activity of "Cn1cnc2cc3c(Nc4cccc(Br)c4)ncnc3cc21" . Value?
output: 96
